Record form. Attribute: Ki. Fill in for each entry.
Molecular target: Alpha-1A adrenergic receptor (Bos taurus)
Sequence (P18130 whole entry): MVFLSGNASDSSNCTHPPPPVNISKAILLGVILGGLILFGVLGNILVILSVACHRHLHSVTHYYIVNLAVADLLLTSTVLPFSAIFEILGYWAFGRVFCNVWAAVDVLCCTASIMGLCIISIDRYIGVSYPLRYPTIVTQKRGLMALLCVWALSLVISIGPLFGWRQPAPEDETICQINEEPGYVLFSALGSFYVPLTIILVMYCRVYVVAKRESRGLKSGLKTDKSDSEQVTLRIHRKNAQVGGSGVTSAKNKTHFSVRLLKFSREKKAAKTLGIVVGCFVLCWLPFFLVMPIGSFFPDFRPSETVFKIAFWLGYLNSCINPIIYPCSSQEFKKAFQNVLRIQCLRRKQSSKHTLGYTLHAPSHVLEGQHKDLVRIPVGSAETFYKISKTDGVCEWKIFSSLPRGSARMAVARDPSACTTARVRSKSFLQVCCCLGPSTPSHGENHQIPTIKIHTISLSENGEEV
Entry rule: numbers only, all in µM.

Ki measured on NCC(O)c1ccc(O)c(O)c1 (stereo not drawn) [Noradrenaline,(+)] = 9.73

Ki measured on Cc1ccc(N(CC2=NCCN2)c2cccc(O)c2)cc1 = 0.0153

Ki measured on Cc1cc(C(C)(C)C)c(O)c(C)c1CC1=NCCN1 = 0.114

Ki measured on COc1cccc(OC)c1OCCNCC1Oc2ccccc2OC1c1ccccc1 (stereo unspecified) = 0.00068
